Cited source for all entries: patent US20200369765A1

study-system: T1, Human Siglec-9 (human, UniProt Q9Y336 18-463)
T1 construct: On transfected CHO cells; also on YTS and KHYG-1 transfectants, primary NK cells and moDC; also called huSiglec-9; CD329
T1 sequence (Q9Y336 18-463): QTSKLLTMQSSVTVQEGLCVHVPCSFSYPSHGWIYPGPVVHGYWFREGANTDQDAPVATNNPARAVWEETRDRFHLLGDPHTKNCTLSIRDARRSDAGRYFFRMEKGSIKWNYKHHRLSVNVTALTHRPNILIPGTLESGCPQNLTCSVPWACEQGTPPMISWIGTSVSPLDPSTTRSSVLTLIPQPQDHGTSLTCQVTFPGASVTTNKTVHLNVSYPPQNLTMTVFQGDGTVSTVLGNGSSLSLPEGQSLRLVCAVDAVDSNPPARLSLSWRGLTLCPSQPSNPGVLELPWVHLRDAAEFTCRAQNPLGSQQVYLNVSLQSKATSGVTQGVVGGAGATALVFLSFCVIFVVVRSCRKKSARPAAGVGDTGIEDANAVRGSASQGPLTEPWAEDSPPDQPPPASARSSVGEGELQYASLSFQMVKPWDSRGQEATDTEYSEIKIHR
measurement-notes: flow cytometry, CHO Siglec-9 cells, mean n = 2
Each record here notes measured EC50.
Write the value in µg/mL as a bare number.

binder: mAbA H0L0 (antibody, V domains shown, constant region not specified) VH: QVQLVQSGAEVKKPGSSVKVSCKASGGTFSSYWMHWVRQAPGQGLEWMGEINPSNGHTNYNEKFESRVTITADESTSTAYMELSSLRSEDTAVYYCARGVESYDFDDALDYWGQGTTVTVSS VL: DIQMTQSPSSLSASVGDRVTITCRASQDINNYLNWYQQKPGKAPKLLIYYTSRLHSGVPSRFSGSGSGTDFTFTISSLQPEDIATYYCQQGNTLPFTFGGGTKVEIK
EC50 [µg/mL]: 0.04

Bench note: what EC50 did mAbA H1L1 (antibody, V domains shown, constant region not specified) VH: QVQLVQSGAEVKKPGSSVKVSCKASGGTFSSYWMHWVRQAPGQGLEWMGEINPSNGHTNYNEKFESRVTITADESTSTAYMELSSLRSEDTAVYYCANGVESYDFDDALDYWGQGTTVTVSS VL: DIQMTQSPSSLSASVGDRVTITCRASQDINNYLNWYQQKPGKAPKLLIYYTSRLHSGVPSRFSGSGSGTDYTFTISSLQPEDIATYYCQQGNTLPFTFGGGTKVEIK show?
0.033
